target: Beta-1 adrenergic receptor (Homo sapiens, UniProt P08588); format: functional; further: assay procedure not described here
Sequence (P08588 whole entry): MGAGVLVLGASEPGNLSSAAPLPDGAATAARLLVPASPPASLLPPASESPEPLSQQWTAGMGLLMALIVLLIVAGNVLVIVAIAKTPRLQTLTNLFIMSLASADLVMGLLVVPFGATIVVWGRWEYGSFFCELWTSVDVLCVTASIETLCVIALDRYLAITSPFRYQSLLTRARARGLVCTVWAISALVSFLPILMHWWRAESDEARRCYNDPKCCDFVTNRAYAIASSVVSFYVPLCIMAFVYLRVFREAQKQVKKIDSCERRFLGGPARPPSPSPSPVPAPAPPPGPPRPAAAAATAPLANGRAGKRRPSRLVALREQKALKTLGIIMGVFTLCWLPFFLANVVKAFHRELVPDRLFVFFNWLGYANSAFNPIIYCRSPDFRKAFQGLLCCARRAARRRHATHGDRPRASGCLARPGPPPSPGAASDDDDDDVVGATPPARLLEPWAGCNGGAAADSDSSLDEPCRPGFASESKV
experimental.endpoint: AC50

Check out these entries, answers already filled in.
GET /value?item= CS(=O)(=O)c1ccc(C2=C(c3ccccc3)C(=O)OC2)cc1 &field=AC50 returns > 10 µM

Briefly, AC50 measured for N[C@@H]1[C@H]2CN(c3nc4c(cc3F)c(=O)c(C(=O)O)cn4-c3ccc(F)cc3F)C[C@@H]12 : > 30 µM

Recorded AC50 (compound C#C[C@]1(O)CC[C@H]2[C@@H]3CCC4=Cc5oncc5C[C@]4(C)[C@H]3CC[C@@]21C ): > 10 µM

Next:
Sample Clc1ccccc1C(c1ccccc1)(c1ccccc1)n1ccnc1 ; AC50 observed: > 10 µM
